# assay_name: LNP average particle size and polydispersity by dynamic light scattering
# Assay type: physicochemical
# measurement_conditions: LNP with the compound as amine lipid; Expt. 10; composition ratio (mol %) 50/9/38/3 for Cmpnd 49, 50/10/38.5/1.5 for the others
quantity_name: PDI
Numbers only.

molecule	quantity_name	reported_value
CCCCC/C=C\C/C=C\CCCCCCCC(=O)OCC(COC(=O)CCCCCCC/C=C\C/C=C\CCCCC)OC(=O)CCC(CCCCCCCC)OC(=O)NCCN(C)CC (stereo not drawn) [Compound 34]	PDI	0.03
CCCCC/C=C\C/C=C\CCCCCCCC(=O)OCC(COC(=O)CCC(OCCCCCCCC)OCCCCCCCC)COC(=O)OCCCN(CC)CC (stereo not drawn) [Compound 49, reference compound]	PDI	0.04
CCCCC/C=C\C/C=C\CCCCCCCC(=O)OCC(COC(=O)CCCCCCC/C=C\C/C=C\CCCCC)OC(=O)CCCC(CCCCCCCC)OC(=O)NCCN(C)CC (stereo not drawn) [Compound 97]	PDI	0.03
CCCCC/C=C\C/C=C\CCCCCCCC(=O)OCC(COC(=O)CCCCCCC/C=C\C/C=C\CCCCC)OC(=O)CCC(CCCCCCCC)OC(=O)NCCN(CC)CC (stereo not drawn) [Compound 96]	PDI	0.03

# batch size: 2; output PDI per entry
1. CCCCC/C=C\C/C=C\CCCCCCCC(=O)OCC(COC(=O)CCCCCCC/C=C\C/C=C\CCCCC)OC(=O)CCC(CCCCCCCC)OC(=O)NCCN1CCCCC1 (stereo not drawn) [Compound 94]
2. CCCCC/C=C\C/C=C\CCCCCCCC(=O)OCC(COC(=O)CCCCCCC/C=C\C/C=C\CCCCC)OC(=O)CCC(CCCCCCCC)OC(=O)NCCN1CCC1 (stereo not drawn) [Compound 93]

[0.06, 0.01]

* * *

# assay_name: pKa of amine lipid by TNS fluorescence
# Format: physicochemical
# measurement_conditions: probe TNS (6-(p-toluidino)-2-naphthalenesulfonic acid sodium salt), unformulated amine lipid in ethanol, sodium phosphate buffers -9.0
Label true when pKa is at or above 6; anything below gets false.

Solved cases (5 shown):
compound	cat
CCCCC/C=C\C/C=C\CCCCCCCC(=O)OCC(COC(=O)CCC(CCCCCCCCCCCC)OC(=O)OCCCN(C)C)OC(=O)CCCCCCC/C=C\C/C=C\CCCCC (centres unmarked)	true
CCCCC/C=C\C/C=C\CCCCCCCC(=O)OCC(COC(=O)CCCCCCC/C=C\C/C=C\CCCCC)OC(=O)CCC(CCCCCCCCCCCC)OC(=O)OCCCN(CC)CC (centres unmarked)	false
CCCCC/C=C\C/C=C\CCCCCCCC(=O)OCC(COC(=O)CCCCCCC/C=C\C/C=C\CCCCC)OC(=O)CCC(CC/C=C\CCCCC)OC(=O)NCCN1CCCC1 (centres unmarked)	true
CCCCCCCCCCCOC(=O)CCCCCCCC(=O)OCC(COC(=O)CCCCCCCC(=O)OCCCCCCCCCCC)OC(=O)CCC(CCCCCCCC)OC(=O)NCCN(C)CC (centres unmarked)	true
CCCCC/C=C\C/C=C\CCCCCCCC(=O)OCC(COC(=O)CCCCCCC/C=C\C/C=C\CCCCC)OC(=O)CCC(CCCCCCCCCCCC)OC(=O)CCCN(CC)CC (centres unmarked)	false

hey, is pKa for this one >= 6? CCCCC/C=C\C/C=C\CCCCCCCC(=O)OCC(COC(=O)CCCCCCC/C=C\C/C=C\CCCCC)OC(=O)CCC(CCCCCCCC)OC(=O)OCCCN(C)C (centres unmarked) true

Tell me whether pKa is at least 6 here: CCCCC/C=C\C/C=C\CCCCCCCC(=O)OCC(COC(=O)CCCCCCC/C=C\C/C=C\CCCCC)OC(=O)CCC(CCCCCCCCCCCC)OC(=O)OCCC1CCCN1C (centres unmarked) false

* * *

# assay_name: LNP average particle size and polydispersity by dynamic light scattering
# Assay type: physicochemical
# measurement_conditions: LNP with the compound as amine lipid; Expt. 2; composition ratio (mol %) 50/9/39.5/3 for Cmpnd 49, 50/9/39.5/1.5 for the others
quantity_name: Num Ave Size (nm)
Give bare numbers, in nm.

molecule	reported_value
CCCCC/C=C\C/C=C\CCCCCCCC(=O)OCC(COC(=O)CCC(OCCCCCCCC)OCCCCCCCC)COC(=O)OCCCN(CC)CC (centres unmarked) [Compound 49, reference compound]	73.13

Hi! Can you tell me Num Ave Size (nm) for each of these molecules?
1. CCCCC/C=C\C/C=C\CCCCCCCC(=O)OCC(COC(=O)CCCCCCC/C=C\C/C=C\CCCCC)OC(=O)CCC(CCCCCC)OC(=O)OCCCN1CCCC1 (centres unmarked)
2. CCCCC/C=C\C/C=C\CCCCCCCC(=O)OCC(COC(=O)CCCCCCC/C=C\C/C=C\CCCCC)OC(=O)CCC(CCCC)OC(=O)OCCCN1CCCC1 (centres unmarked)
3. CCCCC/C=C\C/C=C\CCCCCCCC(=O)OCC(COC(=O)CCCCCCC/C=C\C/C=C\CCCCC)OC(=O)CCC(CCCCCC)OC(=O)NCC1CCCN1C (centres unmarked)
4. CCCCC/C=C\C/C=C\CCCCCCCC(=O)OCC(COC(=O)CCCCCCC/C=C\C/C=C\CCCCC)OC(=O)CCC(CCCC)OC(=O)NCC1CCCN1C (centres unmarked)

1: 85.54; 2: 100.4; 3: 78.34; 4: 82.14

* * *

# assay_name: LNP average particle size and polydispersity by dynamic light scattering
# Format: physicochemical
# measurement_conditions: LNP with the compound as amine lipid; Expt. 1; composition ratio (mol %) 50/9/38/3 for Cmpnd 49, 50/10/38.5/1.5 for the others
For each of the molecules below, state its PDI.
One number for each entry.

molecule	PDI
CCCCCCCCCCOC(=O)CCCCCCCC(=O)OCC(COC(=O)CCCCCCCC(=O)OCCCCCCCCCC)OC(=O)CCC(CCCCCCCC)OC(=O)NCCN(C)CC (stereo not shown)	0.02
CCCCCCCCCCCOC(=O)CCCCCCCC(=O)OCC(COC(=O)CCCCCCCC(=O)OCCCCCCCCCCC)OC(=O)CC(CCCCCCCC)OC(=O)NCCN(C)CC (stereo not shown)	0.03
CCCCC/C=C\C/C=C\CCCCCCCC(=O)OCC(COC(=O)CCCCCCCC(=O)OCCCCCCCCCCC)OC(=O)CC(CCCCCCCC)OC(=O)NCCN(C)CC (stereo not shown)	0.04
CCCCCCCCCCCOC(=O)CCCCCCCC(=O)OCC(COC(=O)CCCCCCCC(=O)OCCCCCCCCCCC)OC(=O)CCCC(CCCCCCCC)OC(=O)NCCN(C)CC (stereo not shown)	0.06
CCCCC/C=C\C/C=C\CCCCCCCC(=O)OCC(COC(=O)CCCCCCC/C=C\C/C=C\CCCCC)OC(=O)CC(CCCCCCCC)OC(=O)NCCN(C)CC (stereo not shown)	0.03
CCCCC/C=C\C/C=C\CCCCCCCC(=O)OCC(COC(=O)CCCCCCCC(=O)OCCCCCCCCCCC)OC(=O)CCCC(CCCCCCCC)OC(=O)NCCN(C)CC (stereo not shown)	0.02
CCCCCCCCCCCOC(=O)CCCCCCCC(=O)OCC(COC(=O)CCCCCCCC(=O)OCCCCCCCCCCC)OC(=O)CCC(CCCCCCCC)OC(=O)NCCN(C)CC (stereo not shown)	0.07
CCCCC/C=C\C/C=C\CCCCCCCC(=O)OCC(COC(=O)CCC(OCCCCCCCC)OCCCCCCCC)COC(=O)OCCCN(CC)CC (stereo not shown) [Compound 49, reference compound]	0.05
CCCCC/C=C\C/C=C\CCCCCCCC(=O)OCC(COC(=O)CCCCCCC/C=C\C/C=C\CCCCC)OC(=O)CCC(CCCCCCCCCCCC)OC(=O)OCCCN(C)C (stereo not shown)	0.04
CCCCC/C=C\C/C=C\CCCCCCCC(=O)OCC(COC(=O)CCCCCCCC(=O)OCCCCCCCCCCC)OC(=O)CCC(CCCCCCCC)OC(=O)NCCN(C)CC (stereo not shown)	0.04

// each listed molecule needs a value for PDI
1. CCCCC/C=C\C/C=C\CCCCCCCC(=O)OCC(COC(=O)CCCCCCC/C=C\C/C=C\CCCCC)COC(=O)CC(CCCCCCCC)OC(=O)NCCN(C)CC (stereo not shown)
2. CCCCC/C=C\C/C=C\CCCCCCCC(=O)OCC(COC(=O)CCCCCCC/C=C\C/C=C\CCCCC)OC(=O)CCC(CCCCCCCC)OC(=O)NCCN(C)CC (stereo not shown)
3. CCCCC/C=C\C/C=C\CCCCCCCC(=O)OCC(COC(=O)CCCCCCC/C=C\C/C=C\CCCCC)COC(=O)CCCC(CCCCCCCC)OC(=O)NCCN(C)CC (stereo not shown)

0.05
0.02
0.02

* * *

# assay_name: LNP average particle size and polydispersity by dynamic light scattering
# Type: physicochemical
# measurement_conditions: LNP with the compound as amine lipid; Expt. 7; composition ratio (mol %) 50/9/38/3 for Cmpnd 49, 50/10/38.5/1.5 for the others
quantity_name: Z-Ave Size (nm)
Give bare numbers, in nm.

molecule	unit_text	Z-Ave Size (nm)
CCCCC/C=C\C/C=C\CCCCCCCC(=O)OCC(COC(=O)CCCCCCC/C=C\C/C=C\CCCCC)OC(=O)CCC(CCCCCCC)OC(=O)OCCCN1CCCC1 (stereo not drawn) [Compound 75]	nm	89.78
CCCCC/C=C\C/C=C\CCCCCCCC(=O)OCC(COC(=O)CCCCCCC/C=C\C/C=C\CCCCC)OC(=O)CCC(CCCCCCCCCC)OC(=O)OCCCN1CCCC1 (stereo not drawn) [Compound 66]	nm	79.79
CCCCC/C=C\C/C=C\CCCCCCCC(=O)OCC(COC(=O)CCCCCCC/C=C\C/C=C\CCCCC)OC(=O)CCC(CCCCCCCC)OC(=O)OCCCN1CCCC1 (stereo not drawn) [Compound 36]	nm	75.9
CCCCC/C=C\C/C=C\CCCCCCCC(=O)OCC(COC(=O)CCCCCCC/C=C\C/C=C\CCCCC)OC(=O)CCC(CCCCCC)OC(=O)OCCCN1CCCC1 (stereo not drawn) [Compound 45]	nm	95.26
CCCCC/C=C\C/C=C\CCCCCCCC(=O)OCC(COC(=O)CCC(OCCCCCCCC)OCCCCCCCC)COC(=O)OCCCN(CC)CC (stereo not drawn) [Compound 49, reference compound]	nm	77.07

Let's switch to this molecule now.
# Z-Ave Size (nm) of CCCCC/C=C\C/C=C\CCCCCCCC(=O)OCC(COC(=O)CCCCCCC/C=C\C/C=C\CCCCC)OC(=O)CCC(CCCCC)OC(=O)OCCCN1CCCC1 (stereo not drawn) [Compound 71] = 104.5
